Data credit: PubChem BioAssay (NCI)

# assayMethodText: NCI Yeast Anticancer Drug Screen. Data for the sgs1 mgt1 strain (AID 161);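 also: 0% = growth of cultures given vehicle only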
# particulars: S. cerevisiae sgs1 mgt1 strain, at 50.0 µM (retest, dose inferred, filed as 5.0), active compounds read high
The panel holds about 79,000 compounds, 15% with a hit somewhere; the sample as a whole holds those more often.
Kindly return t if reported growth inhibition is no lower than 70%; return f if it is lower.

Worked examples follow.
c1ccc(-c2cc(-c3cc(-c4ccccn4)[nH]n3)n[nH]2)nc1 : f
COc1ccc(C(c2cc3c(cc2O)OCO3)N2CCOCC2)c(OC)c1OC (configuration not stated) : t

We next turn to a different compound, shown below.
In plain terms: is recorded growth inhibition at least 70% for CCOc1ccccc1/C=C1\C=Nc2ccccc21 ? f

* * *

# assayMethodText: NCI Yeast Anticancer Drug Screen. Data for the rad50 strain (AID 155);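 also: 0% = growth of vehicle-only cultures of the same strain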
# particulars: S. cerevisiae rad50 strain growth inhibition; at 50.0 µM (retest, dose inferred, filed as 5.0); active compounds read high
# Method: Growth inhibition of yeast strains with defined genetic alterations is measured as a screen for potential anti-cancer activity. Selected strains with alterations in DNA damage repair or cell cycle control were exposed to compounds and growth inhibition was measured relative to vehicle treated controls. The strain used in this assay is rad50
About 79,000 compounds went through this panel and 15% of them were active in at least one assay; those are over-represented in the sample as a whole.
growth inhibition: recorded values
Note: unit % is implicit; provide only the numeric part.

Look over these answered cases.
Cc1cc(C)c(CCCC(=O)c2c(C)cc(C)cc2C)c(C)c1 : 28
Oc1c(N(Cc2ccccc2)Cc2ccccc2)ccc2cccnc12 : 96
Cc1ccc2[nH]c3cc4ccncc4cc3c2c1 : 95

Reported growth inhibition for Cc1ccc(S(=O)(=O)/C=C2\COc3ccccc3C2=O)cc1 : what is it? 99

Reported growth inhibition for CCOC(CN(C)C(=O)Nc1ccc(Cl)c(Cl)c1)OCC : what is it? 52

* * *

# assayMethodText: NCI Yeast Anticancer Drug Screen. Data for the sgs1 mgt1 strain (AID 161);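 also: 0% = growth of cultures given vehicle only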
# particulars: S. cerevisiae sgs1 mgt1 strain, at 5.0 µM (retest, dose inferred, filed as 0.5), active compounds read high
Compounds without any hit were thinned out: in the full panel of roughly 79,000, 15% have a hit.
observationType: growth inhibition (%)
Note: unit % is implicit; provide only the numeric part.

Look over these answered cases.
COc1ccc(C2=C(Cl)C(=O)N(c3ccccc3Cl)C(=O)C2(Cl)Cl)cc1 : 17
OCCOc1ccc2ccccc2c1-c1c(OCCOc2ccc3ccccc3c2-c2c(OCCO)ccc3ccccc23)ccc2ccccc12 : 1
Nc1ccc2c(SCC(=O)Nc3ccccc3-c3ccccc3NC(=O)CSc3c4ccccc4nc4cc(N)ccc34)c3ccccc3nc2c1 : 33
COc1ccc(C2CC(=O)CC(=O)C2)cc1 : -7
O=C(Nc1ccc(Br)cc1)c1c(-c2ccccc2)c2ccc(O)cc2oc1=O : -5

Reported growth inhibition for C[Si](C)(C)C1=C([Si](C)(C)C)C(Cl)(Cl)C1=O : what is it? 20

Reported growth inhibition for CNc1cc(SC)nc(N)n1 : what is it? 1

Reported growth inhibition for CC(C)(Br)C(=O)c1ccc([N+](=O)[O-])o1 : what is it? 85

Reported growth inhibition for O=C(O)CSc1nnc2c3ccccc3c3ccccc3c2n1 : what is it? -2

Reported growth inhibition for CCCCCC(CN(C)C)C(=O)/C=C/c1ccc(Cl)cc1 (stereo unspecified) : what is it? 6

Reported growth inhibition for CC12C=C3CC(OC(=O)c4ccccc4)CCC3(O1)c1ccccc12 (stereo unspecified) : what is it? 1

* * *

# assayMethodText: NCI Yeast Anticancer Drug Screen. Data for the bub3 strain (AID 167)
# particulars: S. cerevisiae bub3 mutant strain, at 50.0 µM (retest, dose inferred, filed as 5.0), active compounds read high
The panel holds about 79,000 compounds, 15% with a hit somewhere; the sample as a whole holds those more often.
Kindly return TRUE if reported growth inhibition is no lower than 90%; return FALSE if it is lower.

CC1=C(C(=O)Nc2ccccc2)C(c2ccc(C(C)C)cc2)C(C(=O)Nc2ccccc2)=C(C)N1 : TRUE

In plain terms: is recorded growth inhibition at least 90% for O=C(Nc1ccccc1O)/C(Cl)=C/Cl ? TRUE

In plain terms: is recorded growth inhibition at least 90% for Cc1noc(NS(=O)(=O)c2ccc(NC(=S)/N=C/c3c(O)[nH]c(=O)[nH]c3=O)cc2)c1C ? FALSE

In plain terms: is recorded growth inhibition at least 90% for COc1ccc(/C(O)=C/c2nc3ccc([N+](=O)[O-])cc3[nH]c2=O)cc1 ? FALSE

In plain terms: is recorded growth inhibition at least 90% for O=c1oc(-c2cccc(C(Cl)Cl)c2)ns1 ? TRUE

In plain terms: is recorded growth inhibition at least 90% for N#CC1=C(N)OC(/C=C/c2ccccc2)=C(C#N)C1c1ccccc1 (configuration not stated) ? FALSE

* * *

growth inhibition: recorded values
# assayMethodText: NCI Yeast Anticancer Drug Screen. Data for the rad50 strain (AID 155);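 also: 0% = growth of vehicle-only cultures of the same strain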
# particulars: S. cerevisiae rad50 strain growth inhibition; at 5.0 µM (retest, dose inferred, filed as 0.5); active compounds read high
# Protocol: Growth inhibition of yeast strains with defined genetic alterations is measured as a screen for potential anti-cancer activity. Selected strains with alterations in DNA damage repair or cell cycle control were exposed to compounds and growth inhibition was measured relative to vehicle treated controls. The strain used in this assay is rad50
This is part of a sample that, as a whole, favours compounds with a hit. Of some 79,000 tested, about 15% had one in any assay.
Note: unit % is implicit; provide only the numeric part.

Look over these answered cases.
C/C=C/C=C1\C=Cc2c(C(=O)OC)coc(=O)c21 : -9
O=C1C(Cl)C(c2cc(Br)cc(Br)c2O)N1n1cnc2ccccc2c1=O (stereo not given) : 15
Oc1ccc(C/C=C/c2ccccc2)cc1O : 3
CC(CCOP(=O)(O)OCCC(C)CC(C)(C)C)CC(C)(C)C (stereo not given) : -3

Reported growth inhibition for CCOC(=O)/C(Cl)=C(\C)Nc1nc2c(ccc3ccccc32)s1 : what is it? 22

Reported growth inhibition for CC(O)C1CCCC[N+]1(C)C (stereo not given) : what is it? 1

Reported growth inhibition for Nc1nc(N)c(-c2cccc(C(F)(F)F)c2)c(Cc2cccc(C(F)(F)F)c2)n1 : what is it? -2

* * *

# assayMethodText: NCI Yeast Anticancer Drug Screen. Data for the rad50 strain (AID 155);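 also: 0% = growth of vehicle-only cultures of the same strain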
# particulars: S. cerevisiae rad50 strain growth inhibition; at 50.0 µM
About 79,000 compounds went through this panel and 15% of them were active in at least one assay; those are over-represented in the sample as a whole. Active and inactive are the calls of the source. No stated cut-off is given here; in the data, active means growth inhibition above about 70%; inactive means the rest.
// one of label 1 = active, label 0 = inactive, no free text

CN(C)N=Nc1ccc2[nH]c(=O)[nH]c2c1 : label 0
CC1(C)CC[C@]2(C(=O)O)[C@H](O)C[C@]3(C)C(=CC[C@@H]4[C@@]5(C)CC[C@H](OC6OCC(O)C(O)C6OC6OCC(O)C(O)C6OC6OCC(O)C(O)C6O)C(C)(C)[C@@H]5CC[C@]43C)[C@@H]2C1 (stereo not given in full) : label 0
CC(O[Si](c1ccccc1)(c1ccccc1)C(C)(C)C)[C@H](NC(=O)OC(C)(C)C)C(=O)O[Si](c1ccccc1)(c1ccccc1)C(C)(C)C (stereo not given in full) : label 1
Clc1ccc(SSN2CCCCC2)cc1 : label 1
O=C(Nc1ccc(Br)cc1)c1c(-c2ccccc2)c2ccc(O)cc2oc1=O : label 1

Outcome logged for S=C(C#Cc1ccccc1)Nc1ccccc1 in this assay: label 1

Outcome logged for ClCc1nc2ccccc2c2ccccc12 in this assay: label 1

Outcome logged for COc1ccc(NC(=O)CSC(N)=O)cc1 in this assay: label 0

Outcome logged for COc1cccc(/C=C2/Sc3scc(-c4ccccc4)[n+]3C2=O)c1O in this assay: label 1

Outcome logged for O=C1Oc2ccccc2C(=O)/C1=C/N1C(=O)/C(=C/c2ccccc2)NC1=S in this assay: label 0

Outcome logged for Oc1ccc2ccccc2c1/C=N\Sc1ccccc1 in this assay: label 1

Outcome logged for CCOSc1ccccc1 in this assay: label 0

Outcome logged for OC(Cc1ccc2ccccc2c1)CN1CCC(c2ccccc2)CC1 (stereo not given) in this assay: label 1

Outcome logged for CCc1cccc(CC)c1NC(=O)CS in this assay: label 1

Outcome logged for CC(C(=O)N1C(=O)N(C(=O)C(C)C(O)c2ccccc2)C(c2ccccc2)C1c1ccccc1)C(O)c1ccccc1 (stereo not given) in this assay: label 1

Outcome logged for COc1ccc(/C=C2\CN(C)C/C(=C\c3ccc(OC)c(OC)c3OC)C2=O)c(OC)c1OC in this assay: label 1

Outcome logged for CC(=O)OC(C)C1C2=C(C(=O)CC1(C)O)C(=O)c1c(ccc(-c3ccc4c(c3O)C(=O)C3=C(C4=O)C(C(C)OC(C)=O)C(C)(O)CC3=O)c1O)C2=O (stereo not given) in this assay: label 1

Outcome logged for CC1(C)C=CC2=C(O1)C(=O)c1ccccc1C2=O in this assay: label 0

Outcome logged for COC(=O)C1(c2ccc(N(C)C)cc2OC)CCCN(C(=O)Oc2ccccc2[N+](=O)[O-])CCc2c1[nH]c1ccccc21 (stereo not given) in this assay: label 1

Outcome logged for CCOC(=O)C(Cc1ccc(O)c(C=O)c1)NC(C)=O (stereo not given) in this assay: label 0

Outcome logged for CC1=Nc2ccccc2C1C(Cc1ccccc1N)c1c(C)[nH]c2ccccc12 (stereo not given) in this assay: label 1

Outcome logged for CC(=O)OC1SC(C)(C)n2c1nc1ccccc1c2=O (stereo not given) in this assay: label 0
